The measurements presented in this section are drawn from PubChem BioAssay.

Quick reference for z-score among some molecules
# experimental-details: FRG1 promoter luciferase signal modulators, primary screen, FRG1 inhibition for FSHD, cell-based, C2C12 myotubes, firefly/Renilla luciferase, luminescence (AID 1084)
# recorded-conditions: higher = more signal, called active from +8 up or from −8 down

>  <molecule>
COCCOC(=O)N1C(=O)[C@@]2(c3ccccc31)[C@H](c1ccccc1OCCO)N1[C@H](c3ccccc3)[C@H](c3ccccc3)OC(=O)[C@H]1[C@@H]2C(=O)Nc1nc2ccccc2s1

>  <z-score>
-1.02

$$$$
>  <molecule>
CN1C(=O)[C@]2(Cc3ccccc3)N=C(c3ccc(OCCCO)cc3)O[C@@H]2c2ccccc21

>  <z-score>
-0.113

$$$$
>  <molecule>
OC([C@@H]1CC(c2ccccc2)=NO1)[C@H]1CC(c2ccccc2)=NO1 (some centres undefined)

>  <z-score>
0.364

$$$$
>  <molecule>
C=CCC(OC(C)=O)[C@@H]1[C@@H](N(Cc2cccc3ccccc23)C(=O)c2ccc(-c3ccccc3)cc2)c2cc(OCCCO)ccc2N1C(=O)Cc1ccc(OC)cc1 (some centres undefined)

>  <z-score>
0.61

$$$$
>  <molecule>
C=CC[C@]1(C(=O)NCCCOC)N=C(c2ccc(OCCCO)cc2)O[C@H]1c1ccccc1N=[N+]=[N-]

>  <z-score>
0.665

$$$$
>  <molecule>
CC(C)C(CO)N1C(=O)[C@@H]2[C@H]3C(=O)OCC=C[C@H]3OC23C=CCN(C(C)C)C(=O)[C@@H]13 (some centres undefined)

>  <z-score>
-0.724

$$$$
>  <molecule>
COc1cc2c(cc1O)C(C1CC1)N(Cc1cc3c(cc1Br)OCO3)CC2 (centres undefined)

>  <z-score>
1.21

$$$$
>  <molecule>
C=CCOC(=O)[C@H]1[C@@H]2C(=O)O[C@@H](c3ccccc3)[C@@H](c3ccccc3)N2[C@@H](c2ccc(OCCOC(=O)[C@H]3C[C@H]4C(=O)N5CCC[C@H]5C(=O)N4[C@H]3c3ccc(O)cc3)cc2)[C@]12C(=O)Nc1ccc(I)cc12

>  <z-score>
-0.269

$$$$
>  <molecule>
C=CCOC(=O)[C@H]1[C@@H]2C(=O)O[C@@H](c3ccccc3)[C@@H](c3ccccc3)N2[C@@H](c2ccc(OCCOC(=O)[C@H]3C[C@H]4C(=O)N5CCC[C@H]5C(=O)N4[C@H]3c3ccc(O)cc3)cc2)[C@]12C(=O)Nc1ccccc12

>  <z-score>
1.31

$$$$
>  <molecule>
CC(C)(C)OC(=O)CC[C@@]1(C(=O)NCC(O)CO)N=C(c2ccc(OCCCO)cc2)O[C@@H]1c1ccccc1N=[N+]=[N-] (some centres undefined)

>  <z-score>
2.43

$$$$
>  <molecule>
CC(C)(C)OC(=O)CC[C@]1(C(=O)NCC(O)CO)COC(c2ccc(OCCCO)cc2)=N1 (some centres undefined)

>  <z-score>
0.555

$$$$
>  <molecule>
CC(=O)NCCCC[C@@H]1NC(=O)[C@@H]2C[C@H](C(=O)NCCCCCCNC(=O)CS)[C@H](c3cccc(OCCO)c3)N2C1=O

>  <z-score>
0.743

$$$$
>  <molecule>
C#CCNC(=O)[C@H](Cc1ccccc1)NC(=O)CCC(=O)O

>  <z-score>
0.338

$$$$
>  <molecule>
O=C1c2ccccc2[C@](Cc2ccccc2I)(C(=O)NC2CC2)[C@H](c2ccc(CO)cc2)N1Cc1ccccc1

>  <z-score>
-3.11

$$$$
